Target: mouse calpain‐1 (Mus musculus, UniProt O35350)
Sequence (O35350 1-713): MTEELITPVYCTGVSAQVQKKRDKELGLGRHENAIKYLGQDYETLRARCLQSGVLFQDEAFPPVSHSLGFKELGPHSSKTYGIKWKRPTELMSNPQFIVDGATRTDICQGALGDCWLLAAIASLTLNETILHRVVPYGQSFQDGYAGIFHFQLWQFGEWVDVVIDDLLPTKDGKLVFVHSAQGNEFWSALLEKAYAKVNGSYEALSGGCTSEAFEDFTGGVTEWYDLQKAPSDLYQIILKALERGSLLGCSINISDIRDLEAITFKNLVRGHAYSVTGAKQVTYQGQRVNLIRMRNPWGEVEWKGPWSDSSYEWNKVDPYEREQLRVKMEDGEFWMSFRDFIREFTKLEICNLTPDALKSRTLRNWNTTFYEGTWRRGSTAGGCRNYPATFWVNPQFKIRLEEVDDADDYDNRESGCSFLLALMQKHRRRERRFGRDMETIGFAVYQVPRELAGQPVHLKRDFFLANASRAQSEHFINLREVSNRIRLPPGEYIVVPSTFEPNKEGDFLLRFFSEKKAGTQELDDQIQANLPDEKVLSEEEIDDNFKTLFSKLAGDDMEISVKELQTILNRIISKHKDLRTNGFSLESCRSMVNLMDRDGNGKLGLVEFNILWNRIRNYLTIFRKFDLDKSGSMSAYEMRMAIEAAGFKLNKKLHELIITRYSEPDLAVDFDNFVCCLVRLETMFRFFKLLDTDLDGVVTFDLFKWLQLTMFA
Sequence (O88456 1-268 partner): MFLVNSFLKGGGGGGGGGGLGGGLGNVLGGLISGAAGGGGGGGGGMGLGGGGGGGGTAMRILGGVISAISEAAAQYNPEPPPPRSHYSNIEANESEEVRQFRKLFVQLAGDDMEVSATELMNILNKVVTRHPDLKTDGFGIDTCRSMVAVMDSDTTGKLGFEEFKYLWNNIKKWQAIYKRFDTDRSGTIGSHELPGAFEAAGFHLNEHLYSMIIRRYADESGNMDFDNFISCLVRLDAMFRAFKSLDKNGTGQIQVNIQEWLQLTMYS
Experiment: Ex‐vivo calpain assay, mouse pons‐cerebellum membrane fractions, 20 μM calcium
Settings: read-out: IC50 for mouse calpain‐1, endogenous brain calpain‐1, membrane fractions
Endpoint: pIC50
The scale used: pIC50 is minus the common logarithm of the concentration in molar units.

Looking up CCC(NC(=O)[C@H](CC(C)C)NC(=O)OCc1ccccc1)C(=O)C(=O)NCc1cc(OC)cc(OC)c1 (stereo partly shown) [Compound C2I, Z‐Leu‐Abu‐CONH‐CH2‐C6H3(3,5‐(OMe)2)] , I found its pIC50 recorded as 5.95
